Data origin, for the record: patent US20140348747A1

testedOn: T1, L46R
T1 chain: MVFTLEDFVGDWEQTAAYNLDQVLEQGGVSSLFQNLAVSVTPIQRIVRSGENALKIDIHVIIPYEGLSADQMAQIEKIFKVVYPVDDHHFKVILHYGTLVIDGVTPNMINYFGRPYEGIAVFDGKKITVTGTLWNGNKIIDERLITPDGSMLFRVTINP
setupConditions: modification not given
readoutKind: pKd
The value called pKd is obtained by taking minus log10 of the concentration in mol/L.

Per the records, this binder ( NVSGWRLFKKISN [NLpep78] ) has pKd equal to 7.74
